- assay: ACEA_ER_AUC_viability: ACEA Biosciences xCELLigence Real-Time Cell Analysis on Estrogen Receptor Agonism for Viability (AID 2283782);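 note: continuous compound exposure with impedance area under curve over 80 h; hit means loss of impedance signal meaning reduced cell growth or viability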
Records with an inconclusive call do not appear. Activity calls are given as the source filed them. Rule for the calls: active = hit-call score of the fitted dose curve at least 0.9, where 1 is the maximum; inconclusive = response in the unintended direction; inactive = score below 0.9.
parameter.measured: AC50

These solved cases illustrate the format of a correct answer.
>>> print(df.to_string())
              entry_smiles  parameter_measured   endpoint_result
0  Nc1cc(Cl)cc(C(=O)O)c1Cl                AC50          inactive
1        CCCCCCCCn1sccc1=O                AC50  11.8 µM (active)
2  CC(C)(C)OOC(=O)c1ccccc1                AC50          inactive
3  CN(C)C(=O)Nc1ccc(Cl)cc1                AC50          inactive

Return the recorded AC50 value; entry: Cc1cccc(N)c1N
inactive

Return the recorded AC50 value; entry: Nc1ccc([N+](=O)[O-])cc1
7.37 µM (active)
